Collected % INHIB (inhibition of human LIM domain kinase 1 mRNA levels) values appear next to each entry.
- System: human LIM domain kinase 1 mRNA
- assayProcedure: Antisense inhibition of human LIM domain kinase 1 mRNA levels, quantitative real-time PCR, A549 cells (screen)
- Format: cell-based
- conditionParameters: quantitative real-time PCR, averages from two experiments, screening concentration not given (50 nM to 300 nM used herein)
Strand notation (5' to 3'): a small letter for the sugar, then the base; units joined by * are phosphorothioate-linked, units joined directly phosphodiester-linked; [ ] holds rarer units or linkages, { } end groups; capitals alone tell only the bases. e = 2'-O-(2-methoxyethyl) (MOE); [5mC] = 5-methylcytosine; d = 2'-deoxy (DNA)
State just the number; it will be interpreted in %.

substance: 206226 (antisense eT*eA*eG*eG*eT*d[5mC]*d[5mC]*d[5mC]*dA*d[5mC]*dA*dG*d[5mC]*d[5mC]*d[5mC]*e[5mC]*eT*eG*eA*eG) [compound 206226]
measurementTarget: human LIM domain kinase 1 mRNA
valueReported: 9

substance: 206227 (antisense e[5mC]*eT*e[5mC]*eA*eG*dA*d[5mC]*d[5mC]*d[5mC]*dT*dT*dG*dA*dG*dT*eT*eA*e[5mC]*eT*eG) [compound 206227]
measurementTarget: human LIM domain kinase 1 mRNA
valueReported: 68

Ask: Quick one: % INHIB (inhibition of human LIM domain kinase 1 mRNA levels) for 206235 (antisense eT*eA*eG*e[5mC]*eT*dG*dG*dG*dA*dT*dT*dA*d[5mC]*dA*dG*eT*eA*e[5mC]*eT*eA) [compound 206235] ?
Reply: 53

Ask: Quick one: % INHIB (inhibition of human LIM domain kinase 1 mRNA levels) for 206198 (antisense eT*e[5mC]*e[5mC]*eA*eG*dG*d[5mC]*dA*dT*d[5mC]*dG*d[5mC]*dA*dT*dG*eA*e[5mC]*e[5mC]*eT*eT) [compound 206198] ?
Reply: 86

Ask: Quick one: % INHIB (inhibition of human LIM domain kinase 1 mRNA levels) for 206194 (antisense eG*eA*e[5mC]*e[5mC]*e[5mC]*dA*dG*dG*dT*d[5mC]*d[5mC]*dT*dT*dG*d[5mC]*eG*e[5mC]*eT*eG*eG) [compound 206194] ?
Reply: 41

Ask: Quick one: % INHIB (inhibition of human LIM domain kinase 1 mRNA levels) for 206220 (antisense e[5mC]*eA*eA*eA*eG*dT*dG*d[5mC]*dA*d[5mC]*dT*dG*dA*dG*dA*eA*eA*eG*e[5mC]*eT) [compound 206220] ?
Reply: 59

Ask: Quick one: % INHIB (inhibition of human LIM domain kinase 1 mRNA levels) for 206196 (antisense eA*e[5mC]*e[5mC]*eT*eT*d[5mC]*dA*d[5mC]*d[5mC]*dT*d[5mC]*d[5mC]*dT*dT*dG*eA*eG*eG*eA*eA) [compound 206196] ?
Reply: 47

Ask: Quick one: % INHIB (inhibition of human LIM domain kinase 1 mRNA levels) for 206195 (antisense eT*e[5mC]*eA*e[5mC]*eG*dG*dT*dG*dT*dG*dT*d[5mC]*dA*d[5mC]*d[5mC]*eT*eT*eG*eA*eT) [compound 206195] ?
Reply: 73

Ask: Quick one: % INHIB (inhibition of human LIM domain kinase 1 mRNA levels) for 206181 (antisense eT*e[5mC]*eT*eT*e[5mC]*dA*d[5mC]*dA*dT*d[5mC]*dT*dG*dG*dG*d[5mC]*eT*e[5mC]*eA*eT*eG) [compound 206181] ?
Reply: 54

Ask: Quick one: % INHIB (inhibition of human LIM domain kinase 1 mRNA levels) for 206190 (antisense eG*eA*e[5mC]*eA*eG*dG*dT*dT*dT*d[5mC]*dT*dG*d[5mC]*d[5mC]*dG*eG*eG*e[5mC]*eA*eG) [compound 206190] ?
Reply: 88

Ask: Quick one: % INHIB (inhibition of human LIM domain kinase 1 mRNA levels) for 206186 (antisense eG*eG*e[5mC]*eG*eT*dG*d[5mC]*d[5mC]*dA*dT*dT*dG*dA*dT*dT*eT*e[5mC]*e[5mC]*eA*eA) [compound 206186] ?
Reply: 72
